# System: K4 kissing-loop RNA reporter;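 note: bound reporter read as fluorescence of individual clusters on recovered sequencing chips by microscopy, with normalized cluster intensities fitted with a binding model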
# EXPERIMENTAL_DETAILS: apparent KD of K4 kissing-loop reporter; higher = weaker reporter binding
# CONDITION_DETAILS: Eterna round: R107; input ligand: none
Cut-off 100 nM on apparent KD of K4 kissing-loop reporter, inclusive. At or above means Fulfilled; below means Not fulfilled.

>>> label_class("GCGGACAUUCGCAGUGAUGUUGCGACGGAAGGAGCGCGUGAAAACGCAGGUAGGUCGCCGACAAAAUUAAUUUUAAUGUGUUCGC [Arginine A K4 30]")
"Fulfilled"
>>> label_class("AAGUGAUGUUGUAGUGAUGUUGUGAUGUUGCAGGAUAUAUAGUGAUGUAGAAGGGUAUGUGCAGUUUUCAUAUUUGAGUGUUGAU [mkkhmullin]")
"Not fulfilled"
>>> label_class("CUCGAGUGAUGUUCGAUUAUUUAUACAGAUACCAGUGAAUUUUAACACCCUUGGCAGCUGGUAGUAUCUUUGUAAUUUUAACUAG [JR_ExcTheophyA_Sub003]")
"Fulfilled"
>>> label_class("UUUGUAUAGGGAAGGAGCGUGAAUGAUAAUGAAUAUAGUGAUGUUAUAUAGAAGAAAGAAUCACAGGUAGGUCGCCCGGAGGAGG [SSArgB.I]")
"Fulfilled"
>>> label_class("AUUAGGCGAAGUGAUGUUUCAUAUAAUGGCAAGGAUAUGUCCUUACACAGAAGGUGCUCUUAGUCAGGUUAUAUUAGGACUGCUA [theeternabot_exclusion_KL_FMN_A_42]")
"Fulfilled"
>>> label_class("GGGAAGUACGGAGGAUAUGCACUGAGGAGGAGAAUAUAGUGAUGUUAUAUAAGAGGAAGGAGAAGAGUAGAAGGCCGUGGAAAGG [SSFMNB.C]")
"Fulfilled"
>>> label_class("GUUACGCAUGGAAGGAGCGCAUGCUCAACUAUAAGCUCAGUGAUGUUGAGCAUUUUUUUUUUGCAGGUAGGUCGCCAUGUGUAAC [Ex Arginine B K4 29]")
"Fulfilled"
>>> label_class("UCUGGAGUAUAUGAUACCAGCAGUGAGAGACAGGAAGUAUAGUGAUGUUAUAUGAGAGAAUGCCCUUGGCAGCGUGUGCGGUGGG [SSTheophylB.R]")
"Not fulfilled"
>>> label_class("ACACAGAGUUGCCGAGUGAUGUUCGGCUUACGAGGACCGGUACGGCCGCCACUCGUUACUCUGUGUUUUGGACACCAAGGCGUCG [Tionzaanon]")
"Fulfilled"
>>> label_class("CGCCGGAAGGCGAGCGCUCCCACUCCGGAAGGAGCGCCCGAAAGGGCAGGUAGGUCGCCGGAGUGAUGUUCCGGUGGAGGGCUCG [#2 Exclusion - Arginine A Attempt #29 (Inspired by Omei)]")
"Fulfilled"
>>> label_class("AAGGCCACGAGAAGGAGCGUGUUGUGGAGUGAUGUUCCAUUGUAGACCUAAGGUCUACAAGCACAGGUAGGUCGCUCGUGGUCAA [Omei KL Arginine B SS A v5]")
"Fulfilled"
>>> label_class("AAGGCAAUUCGAGGAUAUCACAUACACUCCUUGAAUCAAGGAGUGAUGUUCCUUGAAGUGUAUGCAUGAGAAGGCGAAUUGCCUU [#05 K4 FMN B Same State]")
"Not fulfilled"

* * *

# Test system: MS2 coat protein
# EXPERIMENTAL_DETAILS: apparent KD of MS2 coat protein; higher = weaker reporter binding
# CONDITION_DETAILS: Eterna round: R107; input ligand: theophylline 20 uM
READOUT_KIND: apparent KD of MS2 coat protein (nM)

>>> measured_number("GAACAUGAGGAUCACCCAUGUAAAACAGAUACCAGUGAUAUAAUACACCCUUGGCAGCUGUAGCUGAAUAAUAAUUCCCUCAAGC [#19 SameState-TheophyllineA]")
21.8
>>> measured_number("CUACAUUUGUAGAAACCGGUCAACAAUAAUCGAGGACCGGUACGGCCGCCACUCGUAUAAUUUAUUACAUGAGGAUCACCCAUGU [Tryptophan A 2]")
16.7
>>> measured_number("UGACAUUGCUCAGAUACCAGACGUGAGGAUCACCCACGUGCCAACAAGUACAUAAUAAAUGUCCCUUGGCAGCUGAGCAAUGUCU [TheoBX 17 #MS2Left #Theo2 #AlternativeMS2]")
15.2
>>> measured_number("UGAUACACGGGAAGGAGCGACAGGGAUAAGUCCGCACGGGCCGCACAUGAGGAUCACCCAUGUCAGGUAGGUCGCCCGUGGCGUG [Erxemarima]")
19.6
>>> measured_number("UCUCACAUGAGGAUCACCCAUGUGUGCGGUCGAGGACCGGUACGGCCGCCACUCGAAUCCUUCCGCGAGAAGAUUGUACGACGGC [theeternabot_sameState_MS2_Trp_A_38]")
74.4
>>> measured_number("UGUAUGUGAUUUGAUACCAGACCAGCUGGUGGUACUUGAGGAUCACCCAGGUAGGUUUGGGUCCCUUGGCAGCAAAUCGCAUACU [SS Theo B #24 Ms12]")
731
>>> measured_number("GAAGAGAGGAUACCGUUUGUAUACAACGAUACCAGUGGUAUGUAUCACCCUUGGCAGCGUGAGACAUGAGGAUCACCCAUGUGGC [theeternabot_exclusion_MS2_Theo_A_46]")
26.1
>>> measured_number("AUAAAUAUAACCGAUACCAGCCUUAUACAUGAGGAUCACCCAUGUUAUGCUUCCUUUUUUGGCCCUUGGCAGCGGAAAUGGGUAA [AstrosSSTheB#2]")
65.8
>>> measured_number("ACACGAGGAUCACCCGUGUCAUGUGGUGAUACCAGUUUACAUGAGAACCCUUGGCAGCAUAACAACAUGAGGAUCACCCAUGUCA [Same State - Theophylline A #1]")
40.4
>>> measured_number("UGUAUGUGAUCUGAUACCAGUCCCUUGGCAGCAACAUGAGGAUCACCCAUGUAGAUACCAGACCCUUGGCAGCAGAUCGCAUACU [#DoubleAptamer 1]")
9.15
>>> measured_number("AGCGGCUCGAAAGAGUCGCACUCAUGUGAAGGAGCGCGCGUAAGCGCAGGUAGGUCGCACAUGAGGAUCACCCAUGUACCUUCUA [MAT - Exclusion Arginine A - Mod of Eli - D21]")
206

* * *

# Tested on: MS2 coat protein
# EXPERIMENTAL_DETAILS: apparent KD of MS2 coat protein; designed switch direction (-1 OFF switch, 1 ON switch): 1; higher = weaker reporter binding
# CONDITION_DETAILS: Eterna round: R95; input ligand: FMN 200 uM
Classification by apparent KD of MS2 coat protein | ranges: interval 1: < 40 nM; interval 2: ≥ 40 nM and < 60 nM; interval 3: ≥ 60 nM

>>> label_class("GACAGGCAGGCUUUUUCCUCGUAGUGUAAACAUGAGGAUCACCCAUGUGCUCGCCCUGGAUCUUUGGAUCGCAGGAA [Tibeon] (puzzle: Sensor for hsa-mir-208a)")
"interval 3"
>>> label_class("UCUUGGUUUUUGCUCGUUUUUUGUGUUGAACAUGAGGAUCACCCAUGUAUUGUACAGUCCAAUUUAAUAAUGGUCCA [JMF 4] (puzzle: Sensor for hsa-mir-208a)")
"interval 1"
>>> label_class("GGAGCCUGCACUGAGGAUAUUCAUAUUUAAACAUGAGGAUCACCCAUGUAGGCCAGAAGGCCUUGGGAGAAGGCAGGUCGGCUCG [salish99_ss2_r3_083] (puzzle: Same State 2)")
"interval 1"
>>> label_class("AAGUGAUGGGUUAGUAACUGCUAGUAAGGACAUGAGGAUCACCCAUGUGAGUAACGAGCUUUUGCUCGUCUUAUAAA [JR_SHM208A_Sub020] (puzzle: Sensor for hsa-mir-208a)")
"interval 3"
>>> label_class("GUAGAUGUAGAGGAGGAUAUUCAAUGAGGAACAUGAGGAUCACCCAUGUAAGAGAGAGAUGAUGAGAAGAAGGCUUAGAGAGAUG [Altered State 2-2 - Jieux - Same State 2] (puzzle: Same State 2)")
"interval 1"
>>> label_class("UGUUGGUUUUUGCUCGUUUUUUGUGUUGAACAUGAGGAUCACCCAUGUAUUGUACAGUCCAGUUUGGUAAUGGUGCG [JR_SHM208A_Sub046] (puzzle: Sensor for hsa-mir-208a)")
"interval 2"
>>> label_class("UAAGAACAUGAGGAUCACCCAUGUGGAAAGAACACAGGAUAUCAUAGAAGGACGCGACUAUGAGAAGGGUGACACG [Lequat] (puzzle: Same State 1)")
"interval 3"
>>> label_class("GCAGAACAUGAGGAUCACCCAUGUCUCAAAUAUUGAGGAUAUGGACACGGUAUAUCCGAACCAGAAGGCAAACUGC [SS1 Teenbexe 19] (puzzle: Same State 1)")
"interval 2"
>>> label_class("GGAGCCGAUACUGAGGAUAUUCAUAUUAAAACAUGAGGAUCACCCAUGUAGGCCAGAAGGCCUUGGGAGAAGGCAGAUCGGCUCC [Biseusra - 4] (puzzle: Same State 2)")
"interval 1"
>>> label_class("GUAAGGCAAGCUUUUUUCUCGUAGUGUAAACAUGAGGAUCACCCAUGUGCUCGCCCUGGAUCUUUGAAUCGCAGAAA [Ritiorreon] (puzzle: Sensor for hsa-mir-208a)")
"interval 2"
